Source listed as the supplement of paper PMC10899765.

Tested on: MCF10A
assay: percent viability (nuclei count relative to siNT); higher = more viable cells
condition-summary: 20 nM; 72 h
percent viability for assorted sequences
Give just the numeric value; % need not be written.

Would you please look over these solved cases?
ACCAGGCAAGAAAUAUUGU [hsa-miR-4645-5p]: 87.5
UGAGCCUCUCCUUCCCUCCAG [hsa-miR-6823-3p]: 31.2
ACCCCUCGUUUCUUCCCCCAG [hsa-miR-6795-3p]: 101
CAAAACCGCGAUUACUCUUGCA [hsa-miR-548ay-3p]: 25.8
UAACUGGUUGAACAACUGAACC [hsa-miR-582-3p]: 106
UGCAUGACCCUUCCCUCCCCAC [hsa-miR-6797-3p]: 31.8
CAUCUUCCAGUACAGUGUUGGA [hsa-miR-141-5p]: 64.8
UGUUGUCAUGUUUUUUCCCUAG [hsa-miR-6755-3p]: 26
UAGGACUAGAUGUUGGAAUUA [hsa-miR-4759]: 33.2
AGCGCGGGCUGAGCGCUGCCAGUC [hsa-miR-2277-5p]: 31.3

percent viability on MCF10A for GGGAGUCUACAGCAGGG [hsa-miR-4294] is 37.7

###

Test system: MCF10A
assay: 5+ nucleoli phenotype percent effect (relative to siNT 0% and siKIF11 100%); higher = more cells with five or more nucleoli
condition-summary: 20 nM; 72 h
5+ nucleoli phenotype percent effect for assorted sequences
Give just the numeric value; % need not be written.

CAAAAACUGCAGUUACUUUUGC [hsa-miR-548ah-3p]: 63.6
UAUGGAAAGACUUUGCCACUCU [hsa-miR-3688-3p]: 57.1
AUGGGUGAUGGGUGUGGUGU [hsa-miR-4701-3p]: -25
GUUUUACCACCUCCAGGAGACU [hsa-miR-2681-5p]: 3.14
UGACACGGAGGGUGGCUUGGGAA [hsa-miR-4462]: 14.9
AGCAGAGGCAGAGAGGCUCAGG [hsa-miR-2467-3p]: -24.4

Lab note: measured 5+ nucleoli phenotype percent effect of CAGCCUCUGCCCUUGGCCUCC [hsa-miR-6877-3p] was -44.7

Lab note: measured 5+ nucleoli phenotype percent effect of UGAGGGAGGAGACUGCA [hsa-miR-4419a] was -18.8

Lab note: measured 5+ nucleoli phenotype percent effect of AAAAGUAAUUGCGGUUUUUGCC [hsa-miR-548c-5p] was 16.9

Lab note: measured 5+ nucleoli phenotype percent effect of UCUCGCAUCAGGAGGCAAGG [hsa-miR-6872-5p] was 24.9

Lab note: measured 5+ nucleoli phenotype percent effect of GCUGCGGGCUGCGGUCAGGGCG [hsa-miR-4734] was 8.16

Lab note: measured 5+ nucleoli phenotype percent effect of ACUGGGAAGAGGAGCUGAGGGA [hsa-miR-4646-5p] was -6.37

Lab note: measured 5+ nucleoli phenotype percent effect of GGGGGAAGAAAAGGUGGGG [hsa-miR-4271] was 20.1

###

System: MCF10A
assay: one-nucleolus phenotype percent effect (relative to siNT 0% and siNOL11 100%); higher = more cells with one nucleolus (ribosome biogenesis inhibition)
condition-summary: 20 nM; 72 h
one-nucleolus phenotype percent effect for assorted sequences

Lab note: measured one-nucleolus phenotype percent effect of GUGGUCUCUUGGCCCCCAG [hsa-miR-6848-3p] was -17.9%

Lab note: measured one-nucleolus phenotype percent effect of UUGGGCUGGGCUGGGUUGGG [hsa-miR-1587] was 29.2%

Lab note: measured one-nucleolus phenotype percent effect of UAAGUGCUUCCAUGCUU [hsa-miR-302e] was -16.8%

Lab note: measured one-nucleolus phenotype percent effect of CCAAAUCUUGAUCAGAAGCCU [hsa-miR-4762-5p] was -8.43%

###

Test system: MCF10A
assay: one-nucleolus phenotype percent effect (relative to siNT 0% and siNOL11 100%); higher = more cells with one nucleolus (ribosome biogenesis inhibition)
condition-summary: 20 nM; 72 h
one-nucleolus phenotype percent effect for assorted sequences
Give just the numeric value; % need not be written.

Would you please look over these solved cases?
CUCUAGAGGGAAGCGCUUUCUG [hsa-miR-519b-5p]: 5.75
CAAUCAGCAAGUAUACUGCCCU [hsa-miR-34a-3p]: 83.5

Now for the sequence whose one-nucleolus phenotype percent effect we want.
Lab note: measured one-nucleolus phenotype percent effect of AGGGGUGUGGAAAGAGGCAGAACA [hsa-miR-6747-5p] was -4.28

###

Test system: MCF10A
assay: 5+ nucleoli phenotype percent effect (relative to siNT 0% and siKIF11 100%); higher = more cells with five or more nucleoli
condition-summary: 20 nM; 72 h
5+ nucleoli phenotype percent effect for assorted sequences
Give just the numeric value; % need not be written.

Would you please look over these solved cases?
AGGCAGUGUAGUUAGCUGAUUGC [hsa-miR-34c-5p]: -6.79
GGGACUAGGAUGCAGACCUCC [hsa-miR-6503-3p]: -6.73
UUUCUGUCUUUUCUGGUCCAG [hsa-miR-4743-3p]: -25.7

Lab note: measured 5+ nucleoli phenotype percent effect of UCAAGUGUCAUCUGUCCCUAG [hsa-miR-6513-3p] was 42.1

###

Tested on: MCF10A
assay: one-nucleolus phenotype percent effect (relative to siNT 0% and siNOL11 100%); higher = more cells with one nucleolus (ribosome biogenesis inhibition)
condition-summary: 20 nM; 72 h
one-nucleolus phenotype percent effect for assorted sequences
Dear colleague, please send the value followed by its unit.

Would you please look over these solved cases?
AGAUAUUUUGAGUGUUUGGAAUUG [hsa-miR-3145-3p]: -11.7%
UUCACAGGGAGGUGUCAU [hsa-miR-513a-5p]: 24.8%
AUUGUUCUGUCUUUCUCCCAG [hsa-miR-6739-3p]: 7.82%

Lab note: measured one-nucleolus phenotype percent effect of UUGGGGUGGUCGGCCCUGGAG [hsa-miR-6737-5p] was 48.7%

Lab note: measured one-nucleolus phenotype percent effect of AGUUUUGCAGGUUUGCAUUUCA [hsa-miR-19b-2-5p] was 21.2%

Lab note: measured one-nucleolus phenotype percent effect of UUGCCAUACAUAGACUUUAUU [hsa-miR-5590-5p] was 33.6%

###

System: MCF10A
assay: 5+ nucleoli phenotype percent effect (relative to siNT 0% and siKIF11 100%); higher = more cells with five or more nucleoli
condition-summary: 20 nM; 72 h
5+ nucleoli phenotype percent effect for assorted sequences
Give just the numeric value; % need not be written.

Would you please look over these solved cases?
AUAGUGGUUGUGAAUUUACCUU [hsa-miR-4460]: -22.1
GGCUCCUCCUCUCAGGAUGUG [hsa-miR-4268]: 82.4

5+ nucleoli phenotype percent effect on MCF10A for UUGUGCUUGAUCUAACCAUGU [hsa-miR-218-5p] is 35.8

5+ nucleoli phenotype percent effect on MCF10A for CCUCUGAAAUUCAGUUCUUCAG [hsa-miR-146a-3p] is 27.1

5+ nucleoli phenotype percent effect on MCF10A for GUGGGCGGGGGCAGGUGUGUG [hsa-miR-1228-5p] is 15.3

5+ nucleoli phenotype percent effect on MCF10A for UGGCUCAGUUCAGCAGGAACAG [hsa-miR-24-3p] is -17

5+ nucleoli phenotype percent effect on MCF10A for UAACCCUGUCCUCUCCCUCCCAG [hsa-miR-6732-3p] is 1.9

5+ nucleoli phenotype percent effect on MCF10A for AAGCUCAGGUUUGAGAACUGCUGA [hsa-miR-6854-5p] is -24.5

5+ nucleoli phenotype percent effect on MCF10A for UGUAGAUACGAGCACCAGCCAC [hsa-miR-3935] is 20.9

5+ nucleoli phenotype percent effect on MCF10A for AGGGACUUUUGGGGGCAGAUGUG [hsa-miR-365a-5p] is 58.6

###

one-nucleolus phenotype percent effect for assorted sequences
Tested on: MCF10A
assay: one-nucleolus phenotype percent effect (relative to siNT 0% and siNOL11 100%); higher = more cells with one nucleolus (ribosome biogenesis inhibition)
condition-summary: 20 nM; 72 h

Would you please look over these solved cases?
ACAUUUUCCAGCCCAUUCA [hsa-miR-1250-3p]: 53.7%
UAGGGGGUGGCAGGCUGGCC [hsa-miR-6732-5p]: 17.1%
UAAGGUGCAUCUAGUGCAGUUAG [hsa-miR-18b-5p]: 40.6%
UGUGUCCGGGAAGUGGAGGAGG [hsa-miR-4669]: 2.82%
CUUCCGCCCCGCCGGGCGUCG [hsa-miR-718]: -13.8%
UUGGUGAGGACCCCAAGCUCGG [hsa-miR-7855-5p]: 73.9%
ACUUGUAUGCUAGCUCAGGUAG [hsa-miR-643]: -31.1%
GAAGGACCUGCACCUUCG [hsa-miR-6816-3p]: 49.8%

Lab note: measured one-nucleolus phenotype percent effect of AACGCCAUUAUCACACUAAAUA [hsa-miR-122-3p] was -17.4%

Lab note: measured one-nucleolus phenotype percent effect of GCUAAGGAAGUCCUGUGCUCAG [hsa-miR-4521] was -19.3%

Lab note: measured one-nucleolus phenotype percent effect of UGACACGGAGGGUGGCUUGGGAA [hsa-miR-4462] was -18.7%
